B1: library; numbered along this chain (parent)
chain: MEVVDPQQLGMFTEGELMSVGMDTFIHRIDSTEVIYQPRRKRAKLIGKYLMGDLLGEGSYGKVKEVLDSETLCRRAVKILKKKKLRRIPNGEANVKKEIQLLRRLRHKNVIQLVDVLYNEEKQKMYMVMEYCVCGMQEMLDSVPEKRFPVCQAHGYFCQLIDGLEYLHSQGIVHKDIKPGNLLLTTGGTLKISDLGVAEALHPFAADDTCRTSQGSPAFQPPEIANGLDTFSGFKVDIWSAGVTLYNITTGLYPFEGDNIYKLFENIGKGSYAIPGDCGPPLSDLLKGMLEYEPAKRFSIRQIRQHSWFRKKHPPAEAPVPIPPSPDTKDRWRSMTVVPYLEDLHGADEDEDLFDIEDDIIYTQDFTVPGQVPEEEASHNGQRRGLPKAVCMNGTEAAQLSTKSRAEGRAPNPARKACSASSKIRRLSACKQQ

# Variants of: B1
# test protocol: STK11 functional score (HeLa growth suppression), rescaled enrichment; synonymous median = 1, nonsense median = 0 (normalised score)
# experimental conditions: with HeLa; variant type: missense
experimental endpoint: STK11 functional score
Give your answer as a number; write no unit.

Please report the recorded STK11 functional score for E342D .
0.774

Please report the recorded STK11 functional score for P319Q .
1.39

Please report the recorded STK11 functional score for A397N .
0.679

Please report the recorded STK11 functional score for D141A .
1.01

Please report the recorded STK11 functional score for K388F .
1.24

Please report the recorded STK11 functional score for A398L .
1.16

Please report the recorded STK11 functional score for P280F .
1

Please report the recorded STK11 functional score for G10V .
0.971

Please report the recorded STK11 functional score for Q7M .
0.16

Please report the recorded STK11 functional score for R425C .
1.27

Please report the recorded STK11 functional score for K287D .
1.27

Please report the recorded STK11 functional score for I424N .
1.44

Please report the recorded STK11 functional score for K96S .
1.11

Please report the recorded STK11 functional score for T24Y .
1.49

Please report the recorded STK11 functional score for M125R .
0.355

Please report the recorded STK11 functional score for L167S .
0.241

Please report the recorded STK11 functional score for E396R .
1.53

Please report the recorded STK11 functional score for I424W .
0.789

Please report the recorded STK11 functional score for K287E .
1.62

Please report the recorded STK11 functional score for V143T .
1.59

Please report the recorded STK11 functional score for V4P .
1.03

Please report the recorded STK11 functional score for P281E .
1.3
